Data provenance: PubChem BioAssay AID1963431

Reported values of viability, T/C for individual entries
Test system: Rh18 complex spheroid viability, percent test/control
Assay: Anticancer human tumor Rh18 cell line growth inhibition [Asc];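 also: spheroids exposed to compound for 7 days; 100% = DMSO vehicle control wells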
Conditions: second compound 0.0949 µM; first compound 1 µM; hits give low values
measuredAttribute: viability, T/C

CCN1CCN(Cc2ccc(Nc3ncc(F)c(-c4cc(F)c5nc(C)n(C(C)C)c5c4)n3)nc2)CC1 + CCN1C(C(=O)NC23CCC(C(=O)O)(CC2)CC3)C(c2cccc(Cl)c2F)C2(C(=O)Nc3cc(Cl)ccc32)C12CCCCC2: 56.7%
O=C(c1cc(Cc2n[nH]c(=O)c3ccccc23)ccc1F)N1CCN(C(=O)C2CC2)CC1 + CCN1C(C(=O)NC23CCC(C(=O)O)(CC2)CC3)C(c2cccc(Cl)c2F)C2(C(=O)Nc3cc(Cl)ccc32)C12CCCCC2: 29%
CNC(C)C(=O)NC1CN(S(=O)(=O)c2cccc(S(=O)(=O)N3CCC4CCC(C(=O)NC(c5ccccc5)c5ccccc5)N4C(=O)C(NC(=O)C(C)NC)C3)c2)CCC2CCC(C(=O)NC(c3ccccc3)c3ccccc3)N2C1=O (centres undefined) + CCN1C(C(=O)NC23CCC(C(=O)O)(CC2)CC3)C(c2cccc(Cl)c2F)C2(C(=O)Nc3cc(Cl)ccc32)C12CCCCC2: 16.5%
O=C(c1ccc(F)c(F)c1Nc1ccc(I)cc1F)N1CC(O)([C@@H]2CCCCN2)C1 + CCN1C(C(=O)NC23CCC(C(=O)O)(CC2)CC3)C(c2cccc(Cl)c2F)C2(C(=O)Nc3cc(Cl)ccc32)C12CCCCC2: 1.48%
